Recorded values, source the Human Domainome abundance scans (Beltran et al. 2025).

B1: Transitional endoplasmic reticulum ATPase, residues 26 to 106; numbered along this chain, P55072 (parent)
chain: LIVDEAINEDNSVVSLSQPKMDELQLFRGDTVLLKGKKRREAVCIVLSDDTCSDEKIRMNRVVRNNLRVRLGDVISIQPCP

Variants of: B1
experimentNotes: abundance fitness (aPCA) (normalised: wild type 0, dead -1); higher = more abundant; growth selection in yeast, the domain comes from the species named
assayContext: Homo sapiens
Decision: abundance fitness >= -0.7 yields 1 (yes), all other cases yield 0 (no).

Reported abundance fitness reaches at least -0.7 for `R68P` ? 0 (no)

Reported abundance fitness reaches at least -0.7 for `N8M` ? 1 (yes)

Reported abundance fitness reaches at least -0.7 for `E23K` ? 1 (yes)

Reported abundance fitness reaches at least -0.7 for `M59G` ? 0 (no)

Reported abundance fitness reaches at least -0.7 for `E55V` ? 1 (yes)
